B1: FCHO1 (parent)
chain: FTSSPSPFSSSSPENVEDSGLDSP

# Variants of: B1
# assay-protocol: protein stability index of a GFP-peptide fusion (GPS, HEK-293T) (PSI 1-6); higher = more stable;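 further: lentivirally expressed fusions sorted by FACS into six bins by GFP to DsRed ratio, PSI derived from sequencing read proportions per bin multiplied by bin number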
# cond: c terminus: a fixed tail appended
quantity-name: protein stability index

{"columns": ["mutation-key", "recorded-number"],
 "data": [
  ["S9Q", 2.06],
  ["S11A", 2.05],
  ["F1C", 5.43],
  ["L21W", 1.7],
  ["G20F", 2.32],
  ["S10A", 2.53],
  ["S6K", 2.67],
  ["G20S", 2.09],
  ["S19F", 2.24],
  ["P24N", 1.81],
  ["S11Q", 2.06],
  ["S4Y", 1.95],
  ["S10V", 2.06],
  ["S6T", 2.19],
  ["S23H", 2.44],
  ["G20E", 2.04]
]}
